Recorded values, source paper PMC12339163.

tested on: S. saprophyticus biofilm; assay: Biofilm inhibition assay (MBIC, MTT); assay type: cell-based, Staphylococcus saprophyticus; settings: Staphylococcus saprophyticus, 24 h; geometric mean, S. saprophyticus (n = 3)
MEASURE_NAME: minimal effective concentration (µg/mL)

| SMI | SYSTEM_UNDER_TEST | ENDPOINT_RESULT |
| --- | --- | --- |
| Cc1nnc(SCC2=C(C(=O)O)N3C(=O)[C@@H](NC(=O)Cn4cnnn4)[C@H]3SC2)s1 | S. saprophyticus biofilm | 8.53 |
| CC1=CC(=O)c2c(O)cccc2C1=O | S. saprophyticus biofilm | 6.66 |
| NCC[C@H](O)C(=O)N[C@@H]1C[C@H](N)[C@@H](O[C@H]2O[C@H](CN)[C@@H](O)[C@H](O)[C@H]2O)[C@H](O)[C@H]1O[C@H]1O[C@H](CO)[C@@H](O)[C@H](N)[C@H]1O | S. saprophyticus biofilm | 2.08 |
| CC[C@H]1OC(=O)[C@H](C)[C@@H](O[C@H]2C[C@@](C)(OC)[C@@H](O)[C@H](C)O2)[C@H](C)[C@@H](O[C@@H]2O[C@H](C)C[C@H](N(C)C)[C@H]2O)[C@](C)(O)C[C@@H](C)C(=O)[C@H](C)[C@@H](O)[C@]1(C)O | S. saprophyticus biofilm | 27.3 |
| Cc1ccc(C(C)C)c(O)c1 | S. saprophyticus biofilm | 128 |

----------
tested on: Staphylococcus aureus biofilm; test: Checkerboard combination assay, biofilm inhibition; type: cell-based; settings: antibiotic alone; S. aureus biofilm inhibition

| SMI | MEASURE_UNIT | MBIC alone, ATB |
| --- | --- | --- |
| CC[C@H]1OC(=O)[C@H](C)[C@@H](O[C@H]2C[C@@](C)(OC)[C@@H](O)[C@H](C)O2)[C@H](C)[C@@H](O[C@@H]2O[C@H](C)C[C@H](N(C)C)[C@H]2O)[C@](C)(O)C[C@@H](C)C(=O)[C@H](C)[C@@H](O)[C@]1(C)O | µg/mL | 42.83 |
| C=CC1=C(C(=O)O)N2C(=O)[C@@H](NC(=O)/C(=N\OCC(=O)O)c3csc(N)n3)[C@H]2SC1 | µg/mL | 64 |
| Cc1nnc(SCC2=C(C(=O)O)N3C(=O)[C@@H](NC(=O)Cn4cnnn4)[C@H]3SC2)s1 | µg/mL | 4.66 |

----------
system: planktonic cells of Staphylococcus aureus; assay: Checkerboard combination assay, planktonic cells; type: cell-based; settings: Staphylococcus aureus, S. aureus, mean, read-out: MIC alone, NPs

| SMI | MIC (µg/mL) |
| --- | --- |
| COc1ccc2cc3[n+](cc2c1OC)CCc1cc2c(cc1-3)OCO2 | 139 |
| CC1=CC(=O)c2c(O)cccc2C1=O | 4.66 |
| O=c1c(O)c(-c2ccc(O)c(O)c2)oc2cc(O)cc(O)c12 | 341 |

----------
system: Raw 264.7 macrophages; test: Cytotoxicity, MTT assay; format: cell-based; settings: Raw 264.7, MTT, 48 h

| COMPOUND | IC50 |
| --- | --- |
| NC[C@H]1O[C@H](O[C@H]2[C@H](O)[C@@H](O[C@H]3O[C@H](CO)[C@@H](O)[C@H](N)[C@H]3O)[C@H](N)C[C@@H]2N)[C@H](O)[C@@H](O)[C@@H]1O [Kanamycin, kanamycin] | — (IC50 > 1000 µg/mL) |
| CC1(C)S[C@@H]2[C@H](NC(=O)[C@H](N)c3ccc(O)cc3)C(=O)N2[C@H]1C(=O)O [Amoxicillin, amoxicillin] | — (IC50 > 1000 µg/mL) |
| NCC[C@H](O)C(=O)N[C@@H]1C[C@H](N)[C@@H](O[C@H]2O[C@H](CN)[C@@H](O)[C@H](O)[C@H]2O)[C@H](O)[C@H]1O[C@H]1O[C@H](CO)[C@@H](O)[C@H](N)[C@H]1O [Amikacin, amikacin] | — (IC50 > 1000 µg/mL) |
